assay: chemical genetic growth profiling, strain panel (AID 1159580);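 also: tested at 20 µM; growth read once vehicle control cultures reached saturation at 30 °C; 1 = growth at the plate median or of vehicle wells; lower values mean less growth of the strain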; conditions: S. cerevisiae deletion strains, growth OD, locus YKL203C, strain TOR2, hits give low values
About 2,000 (36%) of roughly 5,500 compounds were called active. Not shown: some 18% with an inconclusive outcome. The list shows a part of the results.
Below: a set of entries, each annotated with reported normalized growth.
I only need the number, thanks.

Please review the entries below; each comes with its answer.
compound	recorded_value
COc1ccccc1NC(=S)N/N=C\c1ccccc1O	0.971
Cc1ccc(C)n1-c1ccc(/C=C2/C(=O)Nc3ccccc32)cc1	1.02
CC(NC(=S)N/N=C\c1ccccc1O)c1ccccc1 (stereo not given)	0.98
FC(F)(F)c1ccc(N2CCc3ccccc3C2)c(NC(=S)Nc2cc(Cl)cc(Cl)c2)c1	1.02

// normalized growth lookup, compound = `O=C(Nc1ccccc1)Nc1ccc(Cl)cc1[N+](=O)[O-]` , result: 0.976
